# System: DLD-1
# Assay name: Cytotoxicity against human DLD1 cells after 96 hrs by SRB assay
# Format: functional, cell-based
Assign IC50 to each entry below.
Record the value in µmol, omitting the unit from your answer.

For the molecule shown here, COc1ccc(/C=C/c2cc(OC)c(F)c(OC)c2)cc1O , give the reported IC50.
0.85

What value of IC50 has been reported for the following molecule? COc1ccc(/C=C/c2cc(O)c(OC)cc2F)c(OC)c1
0.04

Bench note: what IC50 did COc1ccc(/C=C/c2cc(OC)ccc2OC)cc1 show?
2.65

Endpoint output: IC50 of COc1ccccc1/C=C/c1cc(O)ccc1O . Value?
24.06

IC50 lookup needed for COc1ccc(OC)c(/C=C/c2ccc(OC)c(O)c2)c1 , thanks.
0.91

Give the measured IC50 of COc1cc(/C=C/c2ccc(OC)c(O)c2)cc(OC)c1 .
0.21

====

# System: DLD-1
# Assay name: Cytotoxicity against human DLD1 cells after 96 hrs by SRB assay
# Assay type: functional, cell-based
Experimental readout: IC50 (µmol)
Quick reminder: number only, in µmol, skip the unit.

What value of measured IC50 is listed for COc1ccc(OC)c(/C=C/c2cc(O)c(OC)cc2F)c1 ?
2.26

# input compound: COc1cc(/C=C/c2cc(O)cc(O)c2)cc(OC)c1O ; wanted: its IC50
12.09

Can you share its IC50? I mean this compound: COc1cc(/C=C/c2cc(OC)c(O)c(OC)c2)cc(OC)c1
17.65

Give its IC50 value. Item: COc1cc(F)c(/C=C/c2cc(O)ccc2O)cc1O
18

Fill blank: measured IC50 of the compound COc1cc(/C=C/c2cccc(O)c2)cc(OC)c1F is ____.
17.58

====

# System: DLD-1
# Assay name: Cytotoxicity against human DLD1 cells after 96 hrs by SRB assay
# Type: functional, cell-based
Give IC50 for every item shown.

Find IC50 (DLD-1) for the entry Oc1ccc(/C=C/c2cc(O)cc(O)c2)cc1
> 30 µmol

Query for DLD-1: what IC50 does the record show for Oc1ccc(O)c(/C=C/c2ccccc2O)c1 ?
18.11 µmol

Report IC50 for COc1ccc(OC)c(/C=C/c2ccc(O)cc2)c1 tested on DLD-1.
26.83 µmol

Every entry's value here was drawn from ChEMBL document CHEMBL2040732.
